assay: de-methylation (enantioselective degradation) by Sprague Dawley rat liver microsomes; format: in vitro ADME; settings: RLM-SD, racemate, 37 °C, 0–120 min

{"Molecule": "CNCCC(Oc1ccc(C(F)(F)F)cc1)c1ccccc1 (racemic) [FLX, (R,S)-fluoxetine]", "Overall first order kinetic constant, kc (min⁻¹)": 0.02}
{"Molecule": "COc1ccc(C(CN(C)C)C2(O)CCCCC2)cc1 (racemic) [VNF, (R,S)-venlafaxine]", "Overall first order kinetic constant, kc (min⁻¹)": 0.03}
{"Molecule": "CN1CCN2c3ccccc3Cc3ccccc3C2C1 (racemic) [MNS, (R,S)-mianserin]", "Overall first order kinetic constant, kc (min⁻¹)": 0.02}
{"Molecule": "CN(C)CC(c1ccc(O)cc1)C1(O)CCCCC1 (racemic) [O-DMV, (R,S)-O-desmethylvanlafaxine]", "Overall first order kinetic constant, kc (min⁻¹)": 0.009}
{"Molecule": "CN(C)CCCC1(c2ccc(F)cc2)OCc2cc(C#N)ccc21 (racemic) [CTM, (R,S)-citalopram]", "Overall first order kinetic constant, kc (min⁻¹)": 0.02}

---

test: de-methylation (enantioselective degradation) by human liver microsomes; details: HLM, racemate, 37 °C, 0–120 min

{"Compound": "CNCCC(Oc1ccc(C(F)(F)F)cc1)c1ccccc1 (racemic) [FLX, (R,S)-fluoxetine]", "Overall first order kinetic constant, kc / min⁻¹": 0.01}
{"Compound": "CN(C)CC(c1ccc(O)cc1)C1(O)CCCCC1 (racemic) [O-DMV, (R,S)-O-desmethylvanlafaxine]", "Overall first order kinetic constant, kc / min⁻¹": 0.025}
{"Compound": "CN1CCN2c3ccccc3Cc3ccccc3C2C1 (racemic) [MNS, (R,S)-mianserin]", "Overall first order kinetic constant, kc / min⁻¹": 0.004}
{"Compound": "CN(C)CCCC1(c2ccc(F)cc2)OCc2cc(C#N)ccc21 (racemic) [CTM, (R,S)-citalopram]", "Overall first order kinetic constant, kc / min⁻¹": 0.007}
{"Compound": "COc1ccc(C(CN(C)C)C2(O)CCCCC2)cc1 (racemic) [VNF, (R,S)-venlafaxine]", "Overall first order kinetic constant, kc / min⁻¹": 0.01}

---

assay: de-methylation (enantioselective degradation) by Wistar Han rat liver microsomes; assay type: in vitro ADME; conditions: RLM-W, racemate, 37 °C, 0–120 min
# reported Overall first order kinetic constant, kc; entries follow

{"Compound": "CN(C)CCCC1(c2ccc(F)cc2)OCc2cc(C#N)ccc21 (racemic) [CTM, (R,S)-citalopram]", "Unit text": "min⁻¹", "Overall first order kinetic constant, kc": 0.07}
{"Compound": "CN1CCN2c3ccccc3Cc3ccccc3C2C1 (racemic) [MNS, (R,S)-mianserin]", "Unit text": "min⁻¹", "Overall first order kinetic constant, kc": 0.008}
{"Compound": "COc1ccc(C(CN(C)C)C2(O)CCCCC2)cc1 (racemic) [VNF, (R,S)-venlafaxine]", "Unit text": "min⁻¹", "Overall first order kinetic constant, kc": 0.05}
{"Compound": "CN(C)CC(c1ccc(O)cc1)C1(O)CCCCC1 (racemic) [O-DMV, (R,S)-O-desmethylvanlafaxine]", "Unit text": "min⁻¹", "Overall first order kinetic constant, kc": 0.02}
{"Compound": "CNCCC(Oc1ccc(C(F)(F)F)cc1)c1ccccc1 (racemic) [FLX, (R,S)-fluoxetine]", "Unit text": "min⁻¹", "Overall first order kinetic constant, kc": 0.06}

---

// reported Overall first order kinetic constant, kc for each item listed
assay: de-methylation (enantioselective degradation) by Lewis rat liver microsomes; type: in vitro ADME; settings: RLM-L, racemate, 37 °C, 0–120 min

{"Molecule": "CN(C)CCCC1(c2ccc(F)cc2)OCc2cc(C#N)ccc21 (racemic) [CTM, (R,S)-citalopram]", "Overall first order kinetic constant, kc [min⁻¹]": 0.007}
{"Molecule": "CNCCC(Oc1ccc(C(F)(F)F)cc1)c1ccccc1 (racemic) [FLX, (R,S)-fluoxetine]", "Overall first order kinetic constant, kc [min⁻¹]": 0.04}
{"Molecule": "CN(C)CC(c1ccc(O)cc1)C1(O)CCCCC1 (racemic) [O-DMV, (R,S)-O-desmethylvanlafaxine]", "Overall first order kinetic constant, kc [min⁻¹]": 0.007}
{"Molecule": "COc1ccc(C(CN(C)C)C2(O)CCCCC2)cc1 (racemic) [VNF, (R,S)-venlafaxine]", "Overall first order kinetic constant, kc [min⁻¹]": 0.009}
{"Molecule": "CN1CCN2c3ccccc3Cc3ccccc3C2C1 (racemic) [MNS, (R,S)-mianserin]", "Overall first order kinetic constant, kc [min⁻¹]": 0.03}
